TARGET_OF_ASSAY: α-amylase
EXPERIMENTAL_DETAILS: In vitro α-amylase inhibition assay
CONDITION_LABEL: read-out: α-Amylase activity IC50 ± SEM; mean ± SEM, triplicate; iodine starch method, pH 6.8, 50 °C, 30 minutes
MEASURED_PARAMETER: IC50 (µM)

compound="Cc1ccc(C(=O)N(C(=O)c2ccc(C)cc2)C(=S)N2N=C(c3ccccc3)CC2c2ccc(C)cc2)cc1 (stereo not drawn)" units_label=µM measured=121
compound="Cc1ccc(C(=O)N(C(=O)c2ccc(C)cc2)C(=S)N2N=C(c3ccc(F)cc3)CC2c2ccc(F)cc2)cc1 (stereo not drawn)" units_label=µM measured=118
compound="Cc1ccc(C(=O)N(C(=O)c2ccc(C)cc2)C(=S)N2N=C(c3ccc(F)cc3)CC2c2cccc(F)c2)cc1 (stereo not drawn)" units_label=µM measured=99.3
compound="Cc1ccc(C(=O)N(C(=O)c2ccc(C)cc2)C(=S)N2N=C(c3ccc(Br)cc3)CC2c2cccc(F)c2)cc1 (stereo not drawn)" units_label=µM measured=90.3
compound="Cc1ccc(C(=O)N(C(=O)c2ccc(C)cc2)C(=S)N2N=C(c3ccc(C)cc3)CC2c2ccc(F)cc2)cc1 (stereo not drawn)" units_label=µM measured=115
compound="Cc1ccc(C(=O)N(C(=O)c2ccc(C)cc2)C(=S)N2N=C(c3ccc(C)cc3)CC2c2ccc(Cl)cc2)cc1 (stereo not drawn)" units_label=µM measured=110
compound="Cc1ccc(C(=O)N(C(=O)c2ccc(C)cc2)C(=S)N2N=C(c3ccc(Br)cc3)CC2c2ccc(F)cc2)cc1 (stereo not drawn)" units_label=µM measured=97.4
compound="Cc1ccc(C(=O)N(C(=O)c2ccc(C)cc2)C(=S)N2N=C(c3ccc(Cl)cc3)CC2c2ccc(Cl)cc2)cc1 (stereo not drawn)" units_label=µM measured=131
compound="Cc1ccc(C(=O)N(C(=O)c2ccc(C)cc2)C(=S)N2N=C(c3ccccc3)CC2c2ccc(F)cc2)cc1 (stereo not drawn)" units_label=µM measured=104
